Recorded values, source ChEMBL document CHEMBL4229560.

System: DU-145
experiment_notes: Antiproliferative activity against human DU145 cells after 72 hrs by MTT assay
Type: functional, cell-based
settings: DU-145, 72 h
Where a SMILES comes first, the peptide text is derived from it. [ ]: non-standard residue; d: D form. Phe(4-guanidino) = N=C(N)Nc1ccc(C[C@H](N)C(=O)O)cc1; Phe(4-NH2) = Nc1ccc(C[C@H](N)C(=O)O)cc1
measurement_name: pIC50
Conceptually, pIC50 converts a concentration in mol/L into minus its log10.

CC(=O)N[C@H](CC(C)C)C(=O)N[C@@H](CC(C)C)C(=O)N[C@@H](CC(C)C)C(=O)N[C@@H](CC(C)C)C(=O)N[C@@H](CCCNC(=N)N)C(=O)N[C@H](C(=O)N[C@@H](CCCCN)C(=O)N[C@@H](CCCNC(=N)N)C(=O)NCCc1ccc(C(=N)N)cc1)C(C)C : 4.39
CC(=O)N[C@@H](CC(C)C)C(=O)N[C@@H](CC(C)C)C(=O)N[C@@H](CC(C)C)C(=O)N[C@@H](CC(C)C)C(=O)N[C@@H](CCCNC(=N)N)C(=O)N[C@H](C(=O)N[C@@H](CCCCN)C(=O)N[C@@H](CCCNC(=N)N)C(=O)N[C@@H](Cc1ccc(NC(=N)N)cc1)C(N)=O)C(C)C (Ac-LLLLRVKR[Phe(4-guanidino)]-NH2) : 4.08
CC(=O)N[C@H](CC(C)C)C(=O)N[C@@H](CC(C)C)C(=O)N[C@@H](CC(C)C)C(=O)N[C@@H](CC(C)C)C(=O)N[C@@H](CCCNC(=N)N)C(=O)N[C@H](C(=O)N[C@@H](CCCCN)C(=O)N[C@@H](CCCNC(=N)N)C(=O)NCCc1c[nH]c2ccccc12)C(C)C : 4.85

// switching to the query compound
Send back DU-145 pIC50 of CC(=O)N[C@@H](CC(C)C)C(=O)N[C@@H](CC(C)C)C(=O)N[C@@H](CC(C)C)C(=O)N[C@@H](CC(C)C)C(=O)N[C@@H](CCCNC(=N)N)C(=O)N[C@H](C(=O)N[C@@H](CCCCN)C(=O)N[C@@H](CCCNC(=N)N)C(=O)N[C@@H](Cc1ccc(N)cc1)C(N)=O)C(C)C (Ac-LLLLRVKR[Phe(4-NH2)]-NH2) only. 3.86

----------
target_of_assay: Furin (Homo sapiens, UniProt P09958)
Sequence (P09958 whole entry): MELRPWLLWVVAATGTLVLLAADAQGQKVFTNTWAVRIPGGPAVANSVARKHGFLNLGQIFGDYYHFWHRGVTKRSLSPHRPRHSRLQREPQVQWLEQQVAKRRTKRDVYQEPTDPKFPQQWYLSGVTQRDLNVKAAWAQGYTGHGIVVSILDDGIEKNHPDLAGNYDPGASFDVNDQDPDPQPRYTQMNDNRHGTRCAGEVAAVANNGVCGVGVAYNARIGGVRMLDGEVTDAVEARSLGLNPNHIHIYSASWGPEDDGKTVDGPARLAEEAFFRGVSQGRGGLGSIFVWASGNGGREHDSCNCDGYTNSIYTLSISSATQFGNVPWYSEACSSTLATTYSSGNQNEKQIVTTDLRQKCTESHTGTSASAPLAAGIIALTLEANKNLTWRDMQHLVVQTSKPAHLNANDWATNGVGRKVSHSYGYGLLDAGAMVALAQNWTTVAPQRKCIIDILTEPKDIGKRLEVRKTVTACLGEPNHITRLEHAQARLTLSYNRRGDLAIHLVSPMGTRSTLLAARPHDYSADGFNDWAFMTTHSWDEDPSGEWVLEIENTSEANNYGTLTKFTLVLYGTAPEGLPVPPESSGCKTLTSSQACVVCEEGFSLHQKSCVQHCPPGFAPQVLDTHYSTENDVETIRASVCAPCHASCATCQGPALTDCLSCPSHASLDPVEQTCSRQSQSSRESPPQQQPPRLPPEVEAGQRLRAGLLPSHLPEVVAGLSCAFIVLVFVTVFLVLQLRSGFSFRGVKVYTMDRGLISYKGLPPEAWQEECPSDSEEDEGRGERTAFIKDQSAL
experiment_notes: Inhibition of recombinant human furin expressed in S2 insect cells using pyroGlu-Arg-Thr-Lys-Arg-AMC peptide as substrate after 1 hr by spectrofluorometry
Ki strictly less than 200 nM = Y. Otherwise N.

Ac-LLLLRVKRG-NH2 : N

Take the substance `Ac-LLLLRVKRS-NH2` and say whether its Ki is less than 200 nM. N

Take the substance `Ac-LLLLRVKRD-NH2` and say whether its Ki is less than 200 nM. Y

Take the substance `Ac-LLLLRVKRE-NH2` and say whether its Ki is less than 200 nM. N

----------
// values below are reported half-life
experiment_notes: Half life in human plasma by ion chromatogram-based analysis
Assay type: ADME, cell-free
Where a SMILES comes first, the peptide text is derived from it. [ ]: non-standard residue; d: D form. The star is where a group is joined. NH(4-amidinobenzyl) = N=C(N)c1ccc(CN*)cc1
Enter your answer as a number in h; do not include the unit.

Report half-life for `CC(=O)N[C@H](CC(C)C)C(=O)N[C@@H](CC(C)C)C(=O)N[C@@H](CC(C)C)C(=O)N[C@@H](CC(C)C)C(=O)N[C@@H](CCCNC(=N)N)C(=O)N[C@H](C(=O)N[C@@H](CCCCN)C(=O)N[C@@H](CCCNC(=N)N)C(=O)NCCc1c[nH]c2ccccc12)C(C)C` 0.8

Report half-life for CC(=O)N[C@H](CC(C)C)C(=O)N[C@@H](CC(C)C)C(=O)N[C@@H](CC(C)C)C(=O)N[C@@H](CC(C)C)C(=O)N[C@@H](CCCNC(=N)N)C(=O)N[C@H](C(=O)N[C@@H](CCCCN)C(=O)NCc1ccc(C(=N)N)cc1)C(C)C (Ac-[dL]LLLRVK-{NH(4-amidinobenzyl)}) 1.7

----------
// values below are reported Ratio Ki
Species: Homo sapiens
experiment_notes: Selectivity ratio of Ki for recombinant human furin to Ki for recombinant human PACE4
Lab note: jot down the number only; don't add units.

See these solved cases before continuing.
Ac-LLLLRVKRF-NH2 : 4
Ac-LLLLRVKRM-NH2 : 5
Ac-LLLLRVKRL-NH2 : 6
Ac-LLLLRVKRN-NH2 : 5
Ac-LLLLRVKRP-NH2 : 4
Ac-LLLLRVKRS-NH2 : 5
Ac-LLLLRVKR-NH2 : 20
Ac-LLLLRVKRI-NH2 : 5

Report Ratio Ki for `Ac-LLLLRVKRW-NH2` 4

Report Ratio Ki for `Ac-LLLLRVKRE-NH2` 4

Report Ratio Ki for `Ac-LLLLRVKRQ-NH2` 5

Report Ratio Ki for `Ac-LLLLRVKRH-NH2` 4

Report Ratio Ki for `Ac-LLLLRVKRV-NH2` 5

Report Ratio Ki for `Ac-LLLLRVKRR-NH2` 16

----------
target_of_assay: Furin (Homo sapiens, UniProt P09958)
experiment_notes: Inhibition of recombinant human furin expressed in S2 insect cells using pyroGlu-Arg-Thr-Lys-Arg-AMC peptide as substrate after 1 hr by spectrofluorometry
Where a SMILES comes first, the peptide text is derived from it. [ ]: non-standard residue; d: D form. Phe(4-guanidino) = N=C(N)Nc1ccc(C[C@H](N)C(=O)O)cc1; Phe(4-NH2) = Nc1ccc(C[C@H](N)C(=O)O)cc1
// values below are reported pKi
Conceptually, pKi converts a concentration in mol/L into minus its log10.

See these solved cases before continuing.
CC(=O)N[C@@H](CC(C)C)C(=O)N[C@@H](CC(C)C)C(=O)N[C@@H](CC(C)C)C(=O)N[C@@H](CC(C)C)C(=O)N[C@@H](CCCNC(=N)N)C(=O)N[C@H](C(=O)N[C@@H](CCCCN)C(=O)N[C@@H](CCCNC(=N)N)C(=O)N[C@@H](Cc1ccc(N)cc1)C(N)=O)C(C)C (Ac-LLLLRVKR[Phe(4-NH2)]-NH2) : 6.89
CC(=O)N[C@@H](CC(C)C)C(=O)N[C@@H](CC(C)C)C(=O)N[C@@H](CC(C)C)C(=O)N[C@@H](CC(C)C)C(=O)N[C@@H](CCCNC(=N)N)C(=O)N[C@H](C(=O)N[C@@H](CCCCN)C(=O)N[C@@H](CCCNC(=N)N)C(=O)N[C@@H](Cc1ccc(NC(=N)N)cc1)C(N)=O)C(C)C (Ac-LLLLRVKR[Phe(4-guanidino)]-NH2) : 6.85

Report pKi for `CC(=O)N[C@H](CC(C)C)C(=O)N[C@@H](CC(C)C)C(=O)N[C@@H](CC(C)C)C(=O)N[C@@H](CC(C)C)C(=O)N[C@@H](CCCNC(=N)N)C(=O)N[C@H](C(=O)N[C@@H](CCCCN)C(=O)N[C@@H](CCCNC(=N)N)C(=O)NCCc1c[nH]c2ccccc12)C(C)C` 6.55

Report pKi for `CC(=O)N[C@H](CC(C)C)C(=O)N[C@@H](CC(C)C)C(=O)N[C@@H](CC(C)C)C(=O)N[C@@H](CC(C)C)C(=O)N[C@@H](CCCNC(=N)N)C(=O)N[C@H](C(=O)N[C@@H](CCCCN)C(=O)N[C@@H](CCCNC(=N)N)C(=O)NCCc1ccc(C(=N)N)cc1)C(C)C` 6.15

----------
// values below are reported pKi
target_of_assay: Proprotein convertase subtilisin/kexin type 6 (Homo sapiens, UniProt P29122)
Sequence (P29122 whole entry): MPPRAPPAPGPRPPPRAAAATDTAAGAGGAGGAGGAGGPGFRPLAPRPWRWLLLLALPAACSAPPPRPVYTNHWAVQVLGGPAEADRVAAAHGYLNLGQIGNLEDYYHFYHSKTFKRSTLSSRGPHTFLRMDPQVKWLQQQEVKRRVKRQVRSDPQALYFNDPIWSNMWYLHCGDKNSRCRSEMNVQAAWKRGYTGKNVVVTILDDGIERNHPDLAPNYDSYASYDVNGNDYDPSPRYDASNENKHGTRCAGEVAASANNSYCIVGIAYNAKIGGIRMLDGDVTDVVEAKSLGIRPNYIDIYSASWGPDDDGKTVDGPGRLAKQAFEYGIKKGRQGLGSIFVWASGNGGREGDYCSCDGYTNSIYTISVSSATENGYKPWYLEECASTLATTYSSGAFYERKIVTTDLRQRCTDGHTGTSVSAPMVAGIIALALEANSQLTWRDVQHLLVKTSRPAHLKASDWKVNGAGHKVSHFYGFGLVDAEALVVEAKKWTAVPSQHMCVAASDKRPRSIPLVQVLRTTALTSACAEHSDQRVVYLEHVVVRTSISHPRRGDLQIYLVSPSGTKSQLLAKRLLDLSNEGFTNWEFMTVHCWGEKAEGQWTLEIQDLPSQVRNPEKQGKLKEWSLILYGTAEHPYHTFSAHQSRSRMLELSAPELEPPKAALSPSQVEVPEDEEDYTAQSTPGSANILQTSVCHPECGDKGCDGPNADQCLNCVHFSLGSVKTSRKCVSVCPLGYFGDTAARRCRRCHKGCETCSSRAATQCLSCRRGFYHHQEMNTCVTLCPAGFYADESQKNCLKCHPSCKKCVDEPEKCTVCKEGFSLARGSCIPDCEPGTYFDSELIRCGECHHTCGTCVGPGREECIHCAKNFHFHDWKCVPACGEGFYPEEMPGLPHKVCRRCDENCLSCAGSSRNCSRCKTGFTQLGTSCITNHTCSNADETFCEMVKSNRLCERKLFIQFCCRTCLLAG
experiment_notes: Inhibition of recombinant human PACE4 expressed in S2 insect cells using pyroGlu-Arg-Thr-Lys-Arg-AMC peptide as substrate after 1 hr by spectrofluorometry
Conceptually, pKi converts a concentration in mol/L into minus its log10.

See these solved cases before continuing.
Ac-LLLLRVKRY-NH2 : 7.54
Ac-LLLLRVKRD-NH2 : 7.52
Ac-LLLLRVKRM-NH2 : 7.49

Report pKi for `Ac-LLLLRVKRW-NH2` 7.54

Report pKi for `Ac-LLLLRVKRT-NH2` 7.66

----------
target_of_assay: Furin (Homo sapiens, UniProt P09958)
experiment_notes: Inhibition of recombinant human furin expressed in S2 insect cells using pyroGlu-Arg-Thr-Lys-Arg-AMC peptide as substrate after 1 hr by spectrofluorometry
measurement_name: pKi
Conceptually, pKi converts a concentration in mol/L into minus its log10.

See these solved cases before continuing.
Ac-LLLLRVKRQ-NH2 : 6.72
Ac-LLLLRVKRV-NH2 : 6.70
Ac-LLLLRVKRL-NH2 : 6.00

Report pKi for `Ac-LLLLRVKRK-NH2` 5.59

Report pKi for `Ac-LLLLRVKRN-NH2` 6.89

Report pKi for `Ac-LLLLRVKRI-NH2` 6.54

Report pKi for `Ac-LLLLRVKRF-NH2` 7.13

Report pKi for `Ac-LLLLRVKRP-NH2` 6.00

Report pKi for `Ac-LLLLRVKRA-NH2` 6.68

Report pKi for `Ac-LLLLRVKRM-NH2` 6.77

Report pKi for `Ac-LLLLRVKRH-NH2` 6.85

Report pKi for `Ac-LLLLRVKRR-NH2` 5.60

Report pKi for `Ac-LLLLRVKRW-NH2` 6.96

Report pKi for `Ac-LLLLRVKRT-NH2` 7.00

Report pKi for `Ac-LLLLRVKRY-NH2` 7.19
